# ASSAY_SYSTEM: Prostaglandin G/H synthase 2 (Mus musculus)
# EXPERIMENT_SUMMARY: Inhibition of purified mouse COX-2 assessed as inhibition of PGE2/PGD2 formation preincubated at 10 uM for 3 mins before arachidonic acid substrate addition measured after 30 seconds by LC-MS-MS method
inhibition values, listed per item
Give just the numeric value; % need not be written.

Consider the following illustrative entries.
1. Cc1ccc(Nc2c(F)cccc2F)c(CC(=O)O)c1    0
2. Cc1ccc(Nc2c(Cl)cccc2Cl)c(CC(=O)O)c1    60
3. Cc1ccc(Nc2ccccc2Cl)c(CC(=O)O)c1    0
4. Cc1cccc(F)c1Nc1ccccc1CC(=O)O    0

Consider the compound shown here: `O=C(O)Cc1ccccc1Nc1ccccc1F` What is its recorded inhibition?
0

Consider the compound shown here: `Cc1ccc(Nc2c(Cl)cc(Cl)cc2Cl)c(CC(=O)O)c1` What is its recorded inhibition?
32

Consider the compound shown here: `Cc1ccc(Nc2ccccc2)c(CC(=O)O)c1` What is its recorded inhibition?
10

Consider the compound shown here: `Cc1ccc(Nc2c(C)cccc2F)c(CC(=O)O)c1` What is its recorded inhibition?
0

Consider the compound shown here: `Cc1ccc(Nc2ccccc2F)c(CC(=O)O)c1` What is its recorded inhibition?
0

Consider the compound shown here: `O=C(O)Cc1ccccc1Nc1c(Cl)cc(Br)cc1Cl` What is its recorded inhibition?
55

====

inhibition values, listed per item
# ASSAY_SYSTEM: Prostaglandin G/H synthase 2 (Mus musculus)
# Sequence (whole entry): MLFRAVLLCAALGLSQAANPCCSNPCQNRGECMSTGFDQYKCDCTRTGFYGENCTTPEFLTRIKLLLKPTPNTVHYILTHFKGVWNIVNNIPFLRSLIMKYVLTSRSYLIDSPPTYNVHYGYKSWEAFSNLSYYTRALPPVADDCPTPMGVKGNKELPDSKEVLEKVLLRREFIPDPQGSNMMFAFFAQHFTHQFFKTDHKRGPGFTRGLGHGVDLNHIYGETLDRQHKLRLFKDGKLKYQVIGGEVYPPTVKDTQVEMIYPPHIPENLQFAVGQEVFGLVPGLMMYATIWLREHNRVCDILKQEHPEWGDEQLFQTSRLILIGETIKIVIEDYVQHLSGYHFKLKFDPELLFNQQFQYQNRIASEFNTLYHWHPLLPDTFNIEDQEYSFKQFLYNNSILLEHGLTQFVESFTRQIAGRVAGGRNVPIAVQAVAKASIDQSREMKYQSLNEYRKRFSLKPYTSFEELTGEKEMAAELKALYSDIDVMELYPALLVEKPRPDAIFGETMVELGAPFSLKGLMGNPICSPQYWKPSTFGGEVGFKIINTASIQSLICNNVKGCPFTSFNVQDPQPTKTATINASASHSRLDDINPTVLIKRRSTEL
# EXPERIMENT_SUMMARY: Inhibition of purified mouse COX-2 assessed as inhibition of PGE2-G/PGD2-G formation preincubated at 10 uM for 3 mins before 2-AG substrate addition measured after 30 seconds by LC-MS-MS method
Give just the numeric value; % need not be written.

Consider the following illustrative entries.
1) Cc1ccc(Nc2c(C)cccc2F)c(CC(=O)O)c1    0
2) O=C(O)Cc1ccccc1Nc1ccccc1F    25
3) Cc1cccc(F)c1Nc1ccccc1CC(=O)O    15

Consider the compound shown here: `Cc1ccc(Nc2ccccc2)c(CC(=O)O)c1` What is its recorded inhibition?
0

Where these numbers come from: ChEMBL document CHEMBL2434913
